Catalogue of sequences with associated apparent Kd
# System: MS2 coat protein
# Assay method text: apparent Kd, MS2 coat protein; higher = weaker binding; RNA-MaP array
# Measurement conditions: designed as: OFF switch for flavin mononucleotide; no ligand
Endpoint label: apparent Kd (nM)

# Sequence, Unit descriptor, Reported result
records = [
    ("ACCAUGUAAGGAUAUCACAAGUUGAGUAGUUCGUUUGGGUGUGAGAAGGUACAUGAGGAUCACCCAUGUUCUGG", "nM", 154),
    ("AUUAGGCGGCAGAAGGCCCAUACCCGGACAUGAGGAUCACCCAUGUACUCGUUUCGCCAUAUCAGGGAGGAUAUGCCAACAACU", "nM", 17.5),
    ("CUGAAGUAAGGAUAUAUAUACCAUAGACCAUUAAAGACAUUAUAGAAGGUACAUGAGGAUCACCCAUGUGGGAA", "nM", 29.9),
    ("ACAAGCCGAGGAUAUACAAGAAAGGCAAGACUGAUAAGAUAACAUGAGGAUCACCCAUGUAGAAGGCGGAAUAC", "nM", 10.4),
]

###

# Test system: MS2 coat protein
# Assay method text: apparent Kd, MS2 coat protein; higher = weaker binding; RNA-MaP array; FMN 200 µM where present
# Measurement conditions: ligand present: flavin mononucleotide; designed as: OFF switch for flavin mononucleotide
Please use YES whenever apparent Kd is not below 20 nM, and NO whenever it is.

# Sequence, Discrete label
rows = [
    ("AACGUGUAAGGAUAUGCUGCUCGUCACGAAAGUGAUGAGUAGCAGAAGGUACAUGAGGAUCACCCAUGUAAAGA", "YES"),
    ("GCUGCGCGAGGAUAUGCGGUUUGUGCUUUGGGCCCUGGCGUACAUGAGGAUCACCCAUGUAGAAGGCGUGUGGG", "YES"),
    ("GCCAGAGCAGGAUAUUCAAUAUCACACAUGAGGAUCACCCAUGUCUAUCGAAAGAUAGAGGGAGAAGGGCUCUGGC", "NO"),
    ("UUUAACGUAGCAGGAUAUUGACGACUUGGGACAUGAGGAUCACCCAUGUUGCAAGAAGGGCUUAGUCAAGACACGAGCGGUGUU", "NO"),
    ("UGGUGUGAAGGAUAUACAUGAGGAUCACCCAUGUAUGAGGUGUGUGUUGAGGUGGAGGGUAGAAGGUCAGGUGG", "YES"),
    ("UAUAUGUCAGGAUAUUAGUUGUGUUAGAAUUUAACUUCUGCUGAGAAGGGACAUGAGGAUCACCCAUGUUCCUC", "YES"),
]

###

# System: MS2 coat protein
# Assay method text: apparent Kd, MS2 coat protein; higher = weaker binding; RNA-MaP array
# Measurement conditions: ligand present: flavin mononucleotide; designed as: OFF switch for flavin mononucleotide

# Sequence, apparent Kd
measured = [
    ("GUGUCUUGGGAGGAUAUCCACUUCACGUCAUAUGGAGAAGGCCCGACAUGAGGAUCACCCAUGUGGUAACUGGC", "0.0287 µM"),
    ("AUUACAGACUACGGCGAUACAUGAGGAUCACCCAUGUCGAGUUAGGAUAUGCAACAAUACGGCCUGCAGAAGGAACCAAGAGGG", "0.0323 µM"),
    ("GUGAGACAUGAGGAUCACCCAUGUUAGGAUAUUAAACUGGUUUAGUCUGUGACCGACGUAAGAAGGAACUUGAU", "0.0117 µM"),
    ("GAUACUACAUAGAAGGUACCGAUGAGCAAUUAACAAUGUGCGGCAACAUGAGGAUCACCCAUGUGUAAGGAUAUAUGCAGAACA", "0.0155 µM"),
    ("GUUCGCUGAGGAUAUACAUGAGGAUCACCCAUGUUCAAGUCUCGUGACUGUUCCCAGCGUAGAAGGCAGCGGUG", "0.00885 µM"),
    ("CGGGCACAUGAGGAUCACCCAUGUAAGGAUAUGAACAGUUUUCACAGAGUUUCACUAUUCAGAAGGUACGUUUC", "0.0208 µM"),
    ("CGACAUUAGUAGAAGGAGGAGUAGCGAUAGAGCCUAGGAUAUACGAACAAAUACAUGAGGAUCACCCAUGUUGACGAUCCAUCA", "0.0458 µM"),
    ("CGAUCCUUGCAGAAGGACUAAAACCAAAUACCAGUAGGAUAUGCAACAUGAGGAUCACCCAUGUGACGAAGGAUGCGGGAAAUA", "0.00869 µM"),
    ("AUGAUAUGGGACAUGAGGAUCACCCAUGUCGGCUUUGUCACGCAGGAUAUUGCGACUCAAAUCGUCAAGAAGGGCGGAGACUCC", "0.0196 µM"),
    ("UAGAGCGGCAACAUGAGGAUCACCCAUGUGGGCGAUGAGGCUCAGGAUAUACACCACCGCUGGACGUAGAAGGGAGACUCGCCG", "0.0201 µM"),
    ("ACGAAUGGUUCAACAUGAGGAUCACCCAUGUGAUCUUCCAUUCAGGAUAUGUGUAGUAGAUCUCAACAGAAGGGAAUAAAAUAG", "0.0387 µM"),
    ("UUGUGACAUGAGGAUCACCCAUGUGAGGAUAUUCUGCUUGUGGAUAGUACGACUUGAUGAAGAAGGCACGUUAU", "0.0333 µM"),
    ("AGGCACCAGAGAGGAUAUUAGGACAGCGAACAUGAGGAUCACCCAUGUAUGUUUGUUAGGCGAGCUAAGAAGGCUCCACGGGUU", "0.00673 µM"),
    ("AUAACGACUUCAGGAUAUCUAAUAUGGCCUAUAUGCUGAAAACAUGAGGAUCACCCAUGUCAAGGAGAGAAGGGAAGACAAACA", "0.0102 µM"),
    ("GUAUUGUAAGGAUAUAGUAGGCCAGUACGAAGGCUUGAGCACUAGAAGGUACAUGAGGAUCACCCAUGUGGUGG", "0.146 µM"),
    ("CGUGGGUGUGAGCCACAUGAGGAUCACCCAUGUCACAACGUGAGAAGGAACAGGCCCUGUGUCGGUUAGGAUAUCAAACCCUUA", "0.0273 µM"),
]
